Listed here: items and their measured Kd.
Molecular target: CNOT7 (Homo sapiens)
Construct: biotin (biotinylated); purchased Ichor Life Sciences
Sequence (Q9UIV1 whole entry): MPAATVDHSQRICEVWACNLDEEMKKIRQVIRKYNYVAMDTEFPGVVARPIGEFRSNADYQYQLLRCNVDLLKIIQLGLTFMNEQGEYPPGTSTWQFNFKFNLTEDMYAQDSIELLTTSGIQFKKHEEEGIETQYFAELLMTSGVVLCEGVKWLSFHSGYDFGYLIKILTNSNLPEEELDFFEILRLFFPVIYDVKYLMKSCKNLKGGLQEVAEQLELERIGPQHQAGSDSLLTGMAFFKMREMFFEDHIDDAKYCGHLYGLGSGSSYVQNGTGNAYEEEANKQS
Assay: Binding of compounds to CNOT7 by surface plasmon resonance (SPR)
Settings: Table 5; dissociation constant for CNOT7 by SPR
Recorded Metric: Kd

[
  {
    "Molecule": "Cc1c[nH]c(=O)nc1SCC(=O)NCc1ccc2c(c1)CC(=O)N2 [Compound I-56]",
    "Recorded Metric": "Kd",
    "Measured": "1 to 25 µM"
  },
  {
    "Molecule": "COCC(Sc1nc(=O)[nH]cc1C)C(=O)NCc1ccc(OC)cc1 (stereo not drawn) [Compound I-169]",
    "Recorded Metric": "Kd",
    "Measured": "1 to 25 µM"
  },
  {
    "Molecule": "COc1ccc(CNC(=O)CCc2nc(=O)[nH]cc2C)cc1 [Compound I-34]",
    "Recorded Metric": "Kd",
    "Measured": "1 to 25 µM"
  },
  {
    "Molecule": "COc1ccc(C(C)NC(=O)C2CC2c2nc(=O)[nH]cc2C)cc1 (mixture of isomers) [Compound I-240]",
    "Recorded Metric": "Kd",
    "Measured": "> 25 µM"
  },
  {
    "Molecule": "COCC(Sc1nc(=O)[nH]cc1C)C(=O)NC(C)c1ccc(OC)cc1 (stereo not drawn) [Compound I-266]",
    "Recorded Metric": "Kd",
    "Measured": "1 to 25 µM"
  },
  {
    "Molecule": "COc1ccc(C(C)NC(=O)CSc2nc(=O)[nH]cc2OC)cc1 (stereo not drawn) [Compound I-230]",
    "Recorded Metric": "Kd",
    "Measured": "> 25 µM"
  },
  {
    "Molecule": "Cc1c[nH]c(=O)nc1SCC(=O)NC(C)c1ccc(S(C)(=O)=O)cc1 (stereo not drawn) [Compound I-294]",
    "Recorded Metric": "Kd",
    "Measured": "1 to 25 µM"
  },
  {
    "Molecule": "CCC(Sc1nc(=O)[nH]cc1C)C(=O)NCc1ccc(OC)cc1 (stereo not drawn) [Compound I-170]",
    "Recorded Metric": "Kd",
    "Measured": "1 to 25 µM"
  },
  {
    "Molecule": "COc1ccc([C@@H](CO)NC(=O)CSc2nc(=O)[nH]cc2C)cc1 [Compound I-48]",
    "Recorded Metric": "Kd",
    "Measured": "1 to 25 µM"
  }
]
